Reference source for all entries: patent US20240246954A1

Give IC50 for every item shown.
# tested_system: Avi-KRAS G12D (1-169) GppNHp/RAF1 RBD-3×FLAG (52-151) (Homo sapiens, UniProt P01116, G12D)
# Construct: Avi-KRAS G12D (1-169) GppNHp
# Sequence (P01116 1-169 isoform P01116-2 G12D limits assumed): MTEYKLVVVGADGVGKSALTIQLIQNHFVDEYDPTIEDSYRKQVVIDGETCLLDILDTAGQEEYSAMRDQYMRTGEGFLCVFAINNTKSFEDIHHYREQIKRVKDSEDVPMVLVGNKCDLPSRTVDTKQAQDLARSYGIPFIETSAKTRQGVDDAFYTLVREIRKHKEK
# assay_protocol: HTRF Raf1-KRAS G12D-GppNHp disruption assay
# recorded_conditions: 1 h incubation
# Procedure: The HTRF assay employed the following protocol: Compounds were dispensed in assay plate (384-well, Grenier Bione #784075) using Echo (model 555) with dose response settings: 200 nL final volume, titration from 100 μM as a 10-point dilution series. […] Plates were analyzed on an Envision plate reader using the following setting: Excitation 320 nm, Bandwidth […]; Emission 615 nm, Bandwidth […], Gain 100%, Flashes 100, Lag 60 μs. […] Data was plotted and analyzed using Prism 8.

For the molecule C[C@H]1CNCCN1c1nc(OC[C@@H]2CCCN2C)nc2c(F)c(-c3ccc(F)c4sc(N)nc34)c(Cl)cc12 [Compound 78] , what IC50 is on record?
10000 to 30000 nM

For the molecule CN1CCC[C@H]1COc1nc(NCCN)c2cc(Cl)c(-c3ccc(F)c4sc(N)nc34)c(F)c2n1 [Compound 49] , what IC50 is on record?
1000 to 10000 nM

For the molecule Nc1nc2c(-c3c(C(F)(F)F)cc4c(N5CC6CC5CN6)nc(OC[C@@]56CCCN5C[C@H](F)C6)nc4c3F)ccc(F)c2s1 (stereo partly shown) [Compound 226] , what IC50 is on record?
100 to 1000 nM

For the molecule Nc1nc2c(-c3c(-c4ccoc4)cc4c(N5CC6CCC(C5)N6)nc(OCC56CCCN5CCC6)nc4c3F)ccc(F)c2s1 [Compound 159] , what IC50 is on record?
100 to 1000 nM

For the molecule CN1CCC[C@H]1COc1nc(NCCN)c2cc(Cl)c(-c3cccc4nc(N)sc34)c(F)c2n1 [Compound 100] , what IC50 is on record?
10000 to 30000 nM

For the molecule CN1CCC[C@H]1COc1nc(N2CCNCC2)c2cc(-c3ccccc3)c(-c3ccc(F)c4sc(N)nc34)c(F)c2n1 [Compound 145] , what IC50 is on record?
10000 to 30000 nM

For the molecule CN1CCC[C@H]1COc1nc(N(CCO)C2CNC2)c2cc(Cl)c(-c3ccc(F)c4sc(N)nc34)c(F)c2n1 [Compound 208] , what IC50 is on record?
10000 to 30000 nM

For the molecule CN1CCC[C@H]1COc1nc(N2CCN[C@@H](CC#N)C2)c2cc(Cl)c(-c3ccc(F)c4sc(N)nc34)c(F)c2n1 [Compound 56] , what IC50 is on record?
10000 to 30000 nM

For the molecule Nc1nc2c(-c3c(C(F)(F)F)cc4c(N5CC6CC5CN6)nc(OC[C@@]56CCCN5C[C@H](F)C6)nc4c3F)ccc(F)c2s1 (stereo partly shown) [Compound 241] , what IC50 is on record?
100 to 1000 nM

For the molecule Nc1nc2c(-c3c(C(F)F)cc4c(N5C[C@H]6CC[C@@H](C5)N6)nc(OC[C@@]56CCCN5C[C@H](F)C6)nc4c3F)ccc(F)c2s1 [Compound 370] , what IC50 is on record?
100 to 1000 nM

For the molecule CO[C@@H]1C[C@@H](COc2nc(NCCN)c3cc(Cl)c(-c4ccc(F)c5sc(N)nc45)c(F)c3n2)N(C)C1 [Compound 61] , what IC50 is on record?
1000 to 10000 nM

For the molecule Nc1nc2c(-c3c(C(F)(F)F)cc4c(N5CC[C@@H]6CNC[C@@H]65)nc(OC[C@@]56CCCN5C[C@H](F)C6)nc4c3F)ccc(F)c2s1 [Compound 351] , what IC50 is on record?
100 to 1000 nM

For the molecule CN(c1nc(OC[C@@]23CCCN2C[C@H](F)C3)nc2c(F)c(-c3ccc(F)c4sc(N)c(C#N)c34)c(C#N)cc12)[C@@H]1CCNC1 [Compound 345] , what IC50 is on record?
100 to 1000 nM

For the molecule CN(c1nc(OC[C@@]23CCCN2C[C@H](F)C3)nc2c(F)c(-c3ccc(F)c4sc(N)c(C#N)c34)c(C(F)(F)F)cc12)[C@H]1CNC[C@H]1F [Compound 353] , what IC50 is on record?
100 to 1000 nM

For the molecule CN(c1nc(OC[C@@]23CCCN2C[C@H](F)C3)nc2c(F)c(-c3ccc(F)c4sc(N)c(C#N)c34)c(C(F)(F)F)cc12)[C@H]1CNC[C@@H]1F [Compound 355] , what IC50 is on record?
100 to 1000 nM

For the molecule CN1C[C@H](F)C[C@H]1COc1nc(NC2CNC2)c2cc(C(F)(F)F)c(-c3ccc(F)c4sc(N)nc34)c(F)c2n1 [Compound 119] , what IC50 is on record?
1000 to 10000 nM

For the molecule CN1CC(F)(F)C[C@H]1COc1nc(NCCN)c2cc(Cl)c(-c3ccc(F)c4sc(N)nc34)c(F)c2n1 [Compound 136] , what IC50 is on record?
10000 to 30000 nM

For the molecule Nc1nc2c(-c3c(C(F)(F)F)cc4c(N5CCNCC5)nc(OC[C@@H]5CCCN5CC(F)F)nc4c3F)ccc(F)c2s1 [Compound 172] , what IC50 is on record?
10000 to 30000 nM

For the molecule NCCNc1ncnc2c(F)c(-c3ccc(F)c4sc(N)nc34)c(Cl)cc12 [Compound 5] , what IC50 is on record?
10000 to 30000 nM

For the molecule Nc1nc2c(-c3c(OC(F)(F)F)cc4c(N5CC6CC5CN6)nc(OC[C@@]56CCCN5C[C@H](F)C6)nc4c3F)ccc(F)c2s1 (stereo partly shown) [Compound 240] , what IC50 is on record?
1000 to 10000 nM

For the molecule Nc1nc2c(-c3c(C(F)(F)F)cc4c(N5CC6CCC(C5)N6CC5CC5)nc(OC[C@@]56CCCN5C[C@H](F)C6)nc4c3F)ccc(F)c2s1 [Compound 324] , what IC50 is on record?
1000 to 10000 nM

For the molecule CO[C@@H]1C[C@@H](COc2nc(N3CC4CCC(C3)N4)c3cc(C(F)(F)F)c(-c4ccc(F)c5sc(N)nc45)c(F)c3n2)N(C)C1 [Compound 284] , what IC50 is on record?
100 to 1000 nM

For the molecule CN(c1nc(OCC23CCCN2CCC3)nc2c(F)c(-c3ccc(F)c4sc(N)nc34)c(C(F)(F)F)cc12)[C@@H]1CCNC1 (single isomer, unassigned) [Compound 238] , what IC50 is on record?
1000 to 10000 nM

For the molecule Nc1nc2c(-c3cc4nc(OC[C@@]56CCCN5C[C@H](F)C6)nc(O[C@H]5CNC[C@@H]5F)c4cc3C(F)(F)F)ccc(F)c2s1 [Compound 374] , what IC50 is on record?
1000 to 10000 nM

For the molecule CN(c1nc(OC[C@@]23CCCN2C[C@H](F)C3)nc2c(F)c(-c3ccc(F)c4sc(N)c(C#N)c34)c(C(F)(F)F)cc12)[C@@H]1CCN[C@@H]1CF [Compound 364] , what IC50 is on record?
≤ 100 nM
